tested_system: T1, rGyr_fl Y851F (full-length reverse gyrase) (Thermotoga maritima, UniProt O51934 1-1104, Y851F)
T1 sequence: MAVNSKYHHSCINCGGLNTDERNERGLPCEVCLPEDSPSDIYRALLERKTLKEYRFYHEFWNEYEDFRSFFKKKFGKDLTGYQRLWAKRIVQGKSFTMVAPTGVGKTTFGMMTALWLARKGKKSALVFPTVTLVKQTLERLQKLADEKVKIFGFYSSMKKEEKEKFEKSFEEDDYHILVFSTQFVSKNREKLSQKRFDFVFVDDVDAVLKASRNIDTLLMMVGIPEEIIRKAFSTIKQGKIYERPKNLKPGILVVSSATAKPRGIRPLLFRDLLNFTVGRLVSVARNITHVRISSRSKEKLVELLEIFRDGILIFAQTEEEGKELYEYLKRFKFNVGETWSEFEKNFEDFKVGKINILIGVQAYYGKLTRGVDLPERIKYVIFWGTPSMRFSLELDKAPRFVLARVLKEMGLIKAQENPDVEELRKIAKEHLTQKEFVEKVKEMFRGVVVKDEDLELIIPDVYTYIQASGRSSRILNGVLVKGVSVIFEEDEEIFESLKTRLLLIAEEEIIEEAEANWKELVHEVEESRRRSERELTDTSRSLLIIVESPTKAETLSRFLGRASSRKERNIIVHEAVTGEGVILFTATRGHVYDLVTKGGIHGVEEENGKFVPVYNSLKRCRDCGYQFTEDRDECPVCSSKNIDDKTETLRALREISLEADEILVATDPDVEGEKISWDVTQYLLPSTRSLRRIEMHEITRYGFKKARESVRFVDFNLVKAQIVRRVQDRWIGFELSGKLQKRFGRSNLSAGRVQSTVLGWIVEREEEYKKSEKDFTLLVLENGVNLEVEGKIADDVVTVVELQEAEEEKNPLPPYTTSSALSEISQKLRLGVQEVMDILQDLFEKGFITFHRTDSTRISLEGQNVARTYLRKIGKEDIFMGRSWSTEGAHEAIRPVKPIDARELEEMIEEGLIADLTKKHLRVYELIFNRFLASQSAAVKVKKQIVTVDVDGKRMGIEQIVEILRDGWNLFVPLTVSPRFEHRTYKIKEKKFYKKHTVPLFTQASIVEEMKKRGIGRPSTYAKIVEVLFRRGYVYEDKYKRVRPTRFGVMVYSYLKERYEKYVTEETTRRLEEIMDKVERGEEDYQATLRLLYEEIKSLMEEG
test: fluorescence anisotropy
endpoint_label: Kd (nM)
Enter your answer as a number in nM; do not include the unit.

Give Kd for 60-base ssDNA (ssDNA) DNA: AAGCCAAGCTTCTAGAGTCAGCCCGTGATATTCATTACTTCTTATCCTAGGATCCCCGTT 330
